Numbers sourced from PubChem BioAssay (NCI).

Test system: HOP-92 NSCLC
Experiment: NCI-60 one-dose screen, 48 h
Details: 10 µM unless noted
About 83,000 compounds went through this panel and 20% of them were active in at least one assay; those are over-represented in the sample as a whole. Activity calls are given as the source filed them. Rule for the calls: active = growth percent below 10; inactive = the rest.
Possible outcomes: active, inactive

{"molecule": "CN(C)P1(N(C)C)=NP(N(C)C)(N(C)C)=NP(N(C)C)(N(C)C)=N1", "measured-target": "HOP-92 NSCLC", "label-value": "inactive"}
{"molecule": "CCCCCCCCCCCCOc1ccc(C(=O)Oc2ccc(CSP3(=O)OCC4OC(n5cnc6c(N)ncnc65)C(F)C4OP(=O)(O)OCC4OC(n5ccc(=O)[nH]c5=O)C(F)C4O3)cc2)cc1 (configuration not stated)", "measured-target": "HOP-92 NSCLC", "label-value": "inactive"}
{"molecule": "O=C(CCCN1CCC2(CC1)C(=O)NCN2c1ccc(F)cc1)c1ccc(F)cc1", "measured-target": "HOP-92 NSCLC", "label-value": "inactive"}
{"molecule": "O=C(c1cccs1)C1NO[N+]([O-])=C1c1cccs1 (configuration not stated)", "measured-target": "HOP-92 NSCLC", "label-value": "active"}
{"molecule": "COc1cc(C2CC(=O)Nc3nc(N)[se]c32)c(OC)c2c1OCO2 (configuration not stated)", "measured-target": "HOP-92 NSCLC", "label-value": "inactive"}
{"molecule": "NC(Cc1ccc2c(c1)OCO2)c1ccc2c(c1)OCO2 (configuration not stated)", "measured-target": "HOP-92 NSCLC", "label-value": "inactive"}
{"molecule": "CC(=O)O[C@H]1CCC2(C)C(=CCC3C2CCC2(C)/C(=N/OC(=O)c4ccc(N(CCCl)CCCl)cc4)CCC32)C1 (some centres not stated)", "measured-target": "HOP-92 NSCLC", "label-value": "inactive"}
{"molecule": "COc1cc(CNCCc2ccc(Cl)cc2)cc(OC)c1O", "measured-target": "HOP-92 NSCLC", "label-value": "inactive"}
{"molecule": "ClCCN(CCCl)C(c1ccccc1)c1ccc(Cl)cc1 (configuration not stated)", "measured-target": "HOP-92 NSCLC", "label-value": "inactive"}
{"molecule": "n1nc(-c2nonc2-c2nn[nH]n2)n[nH]1", "measured-target": "HOP-92 NSCLC", "label-value": "inactive"}
{"molecule": "C/C(=C\\C(=O)O[C@H]1[C@@H]2[C@H](C)CC[C@H]2[C@]2(C)O[C@@]1(C1CCCCC1)C[C@H]2OC(=O)CO)c1ccccc1", "measured-target": "HOP-92 NSCLC", "label-value": "inactive"}
{"molecule": "C/C(=C\\c1cc(C(F)(F)F)n(-c2ccc(N)cc2)n1)[C@@H]1C[C@@H]2O[C@]2(C)CCC[C@H](C)[C@H](O)[C@@H](C)C(=O)C(C)(C)[C@@H](O)CC(=O)O1", "measured-target": "HOP-92 NSCLC", "label-value": "inactive"}
{"molecule": "CCC[CH2][Sn]([CH2]CCC)([CH2]CCC)[O]C(=O)c1ccc(Cl)cc1Cl", "measured-target": "HOP-92 NSCLC", "label-value": "active"}
{"molecule": "CC(C)OC(=S)[S-].[Au+].c1ccc([PH+](c2ccccc2)c2ccccc2)cc1", "measured-target": "HOP-92 NSCLC", "label-value": "active"}
{"molecule": "CCOP(=O)(OCC)Oc1ccc(Sc2ccc(OP(=O)(OCC)OCC)cc2)cc1", "measured-target": "HOP-92 NSCLC", "label-value": "inactive"}
{"molecule": "COP(=S)(OC)Oc1ccc(SC)c(C)c1", "measured-target": "HOP-92 NSCLC", "label-value": "inactive"}
{"molecule": "Cc1cc([N+](=O)[O-])c(Cl)cc1NS(=O)(=O)c1ccccc1", "measured-target": "HOP-92 NSCLC", "label-value": "active"}
{"molecule": "CC[C@]12C=CCN3CC[C@@]4(c5ccc(OC)cc5N(C)[C@H]4[C@@](O)(C(=O)OC)[C@@H]1OC(=O)CCCN1CCN(CCCC(=O)O[C@@H]4[C@]5(CC)C=CCN6CC[C@@]7(c8ccc(OC)cc8N(C)[C@H]7[C@@]4(O)C(=O)OC)[C@@H]65)CC1)[C@@H]32", "measured-target": "HOP-92 NSCLC", "label-value": "active"}
{"molecule": "CC(=O)N(C)C1=Nc2ccc(Cl)cc2C(c2ccccc2)=[N+]([O-])C1", "measured-target": "HOP-92 NSCLC", "label-value": "inactive"}
{"molecule": "CC(C)(NC(=O)c1nn(CCCCCF)c2ccccc12)c1ccccc1", "measured-target": "HOP-92 NSCLC", "label-value": "inactive"}
{"molecule": "NC(=O)OCC(CO)(c1ccccc1)c1ccccc1", "measured-target": "HOP-92 NSCLC", "label-value": "inactive"}
{"molecule": "N#[N+]c1nc2nc(N)[nH]c(=O)c2[nH]1", "measured-target": "HOP-92 NSCLC", "label-value": "inactive"}
{"molecule": "Cc1cccc(N(C)c2cccc3c2C(=O)[Se]C3)c1C", "measured-target": "HOP-92 NSCLC", "label-value": "inactive"}
{"molecule": "CC(=O)O[C@H]1C[C@H](O[C@H]2[C@@H](O)C[C@H](O[C@H]3[C@@H](O)C[C@H](O[C@H]4CC[C@@]5(C)C(CCC6C5C[C@@H](O)[C@]5(C)[C@@H](C7=CC(=O)OC7)CC[C@]65O)C4)O[C@@H]3C)O[C@@H]2C)O[C@H](C)[C@H]1O[C@@H]1O[C@H](CO)[C@@H](O)[C@H](O)[C@H]1O (some centres not stated)", "measured-target": "HOP-92 NSCLC", "label-value": "active"}
{"molecule": "Clc1ccc(SSC(Cl)(Cl)Cl)cc1", "measured-target": "HOP-92 NSCLC", "label-value": "inactive"}
{"molecule": "C/C(=N/OC(=O)N(C)C)c1cc(Cl)ccc1Cl", "measured-target": "HOP-92 NSCLC", "label-value": "inactive"}
{"molecule": "NS(=O)(=O)c1nc[nH]c1[N+](=O)[O-]", "measured-target": "HOP-92 NSCLC", "label-value": "inactive"}

###

Tested on: HL-60(TB) leukemia
Experiment: NCI-60 one-dose screen, 48 h
Settings: 10 µM unless noted
The panel holds about 83,000 compounds, 20% with a hit somewhere; the sample as a whole holds those more often. The source made the active and inactive calls. Rule for the calls: active = growth percent below 10; inactive = the rest.
Possible outcomes: Yes for active, No for inactive

{"compound": "CC1(C)CC(=O)C2=C(C1)N(c1ccc(OC(F)(F)F)cc1)C(N)=C(C#N)C2c1ccc(Br)cc1F (stereo unspecified)", "label-value": "No"}
{"compound": "COc1ccc2cc1Oc1ccc(cc1)C[C@H]1c3cc(c(OC)cc3CCN1C)Oc1c(OC)c(OC)cc3c1[C@H](C2)N(C)CC3", "label-value": "No"}
{"compound": "Cc1c(Cl)cccc1NC(=O)c1sc2nc3c(cc2c1N)CN(Cc1ccccc1)CC3", "label-value": "Yes"}
{"compound": "COc1ccc(C/C(C)=C(/c2ccc(OCCN3CCCCCC3)cc2)c2ccc(OC(=O)NCc3ccccc3)cc2)cc1", "label-value": "No"}
{"compound": "O=C(NCCc1ccccn1)OCc1nc2nc(Cl)nc(N3CCOCC3)c2[nH]1", "label-value": "Yes"}
{"compound": "Cc1ccc(C(=O)O)c(N)c1C", "label-value": "No"}
{"compound": "O=Cc1[nH]c(Sc2ccccc2)c2ccccc12", "label-value": "No"}
{"compound": "CN(C)CCOc1nc2c3cc([N+](=O)[O-])ccc3nn2c2ccccc12", "label-value": "No"}
{"compound": "Oc1cccc(-c2nc(-c3n[nH]c(=S)n3-c3ccccc3)cc3c2[nH]c2ccccc23)c1", "label-value": "Yes"}
{"compound": "Nc1ccc(F)cc1F", "label-value": "No"}
{"compound": "Cc1nc2c(c(=O)[nH]1)C(c1ccccc1)c1ccc3ccccc3c1O2 (stereo unspecified)", "label-value": "Yes"}
{"compound": "CCCCC(CC)COC(C)=O (stereo unspecified)", "label-value": "No"}
{"compound": "CCOC(=O)c1c(-c2ccc(Cl)cc2)c(C#N)c2c(C#N)c(N)nn2c1N", "label-value": "No"}
{"compound": "COc1ccc(-c2n[nH]nc2-c2cc(OC)c3c(c2)OCO3)cc1", "label-value": "Yes"}
{"compound": "O=C(Nc1ccc(F)c(Cl)c1)c1n[nH]c(=O)c2ccccc12", "label-value": "No"}
{"compound": "C=CC(=O)Nc1cccc(-c2nc(SC)nc(Nc3cccc(OC)c3)c2C#N)c1", "label-value": "No"}
{"compound": "O=C1CC(c2ccccc2)Cc2nc3ccc(Br)cc3cc21 (stereo unspecified)", "label-value": "Yes"}
{"compound": "C=C(C)[C@@H]1CC[C@]2(COC(=O)c3ccccc3C(=O)O)CC[C@]3(C)[C@H](CC[C@@H]4[C@@]5(C)CCCNC(C)(C)[C@@H]5CC[C@]43C)[C@@H]12", "label-value": "Yes"}
{"compound": "O=C1C=CC(=O)N1c1ccccc1", "label-value": "No"}
{"compound": "COc1cc(Cn2cc3c(c2)-c2onc(CO)c2CC3)cc(OC)c1OC", "label-value": "No"}
{"compound": "CC1=CC(c2ccco2)=C2C(N)=NNC2N1 (stereo unspecified)", "label-value": "No"}
